Where these numbers come from: ChEMBL document CHEMBL3988442

system-tested: AMP-activated protein kinase, AMPK (Homo sapiens) (UniProt P54646+O43741+P54619+Q9UGJ0+Q9Y478+Q13131+Q9UGI9)
experiment: AMP-dependent Kinase enzyme assay. An in vitro enzyme assay that detects ADP turnover that is directly proportional to AMPK activity. This uses naive AMPK that is activated during the assay with MK-8722
Assay type: functional
Set-up: scale not given: direction of the effect not stated beside the values
reported-conditions: 30 µM
metric-name: Percent Effect (%)
Lab book: enter the figure in %, no units written.

**Query** State its Percent Effect for this compound: COCC[C@]1(O)CCN(CC(=O)NCc2ccccn2)C[C@H]1C
**Result** 9.06

**Query** State its Percent Effect for this compound: CCc1cc(CN2CCCCC2c2ccc(F)cc2)on1 (configuration not stated)
**Result** 2.23

**Query** State its Percent Effect for this compound: CC(Cc1cccc(F)c1)C(=O)NS(=O)(=O)c1cnn(C)c1 (configuration not stated)
**Result** -5.21

**Query** State its Percent Effect for this compound: Cc1cc(=O)n2nc(Oc3ccc(C#N)cc3Cl)sc2n1
**Result** -3.6

**Query** State its Percent Effect for this compound: Cn1ncnc1NCc1ccc(Br)cc1
**Result** 6.33

**Query** State its Percent Effect for this compound: Cc1ccc(C(C)NC(=O)N2CCCN(CC(F)F)CC2)s1 (configuration not stated)
**Result** -1.15

**Query** State its Percent Effect for this compound: O=C(C1CCCO1)N1CCC(n2cc(-c3ccsc3)nn2)CC1 (configuration not stated)
**Result** 4.03

**Query** State its Percent Effect for this compound: CC(=O)Nc1ccc(Oc2cc(C)nc(C3CCNCC3)c2)cc1
**Result** 0.11

**Query** State its Percent Effect for this compound: COc1ccc(CC2(CO)CCN(c3cc(C#N)ccn3)CC2)cc1
**Result** 112

**Query** State its Percent Effect for this compound: COc1ccc(N2CCC(NC(=O)c3sccc3C)CC2)cc1
**Result** -1.46

**Query** State its Percent Effect for this compound: O=C(c1ccc(-n2cnnc2)cc1Cl)N1CCCC2(CCNC2)C1 (configuration not stated)
**Result** 0.724

**Query** State its Percent Effect for this compound: COCC1CCN(c2ccnc3ccsc23)C1 (configuration not stated)
**Result** 4.92
